# System: 653999-131-R-J2-PDC complex spheroid viability
# test.name: Anticancer human tumor 653999-131-R-J2-PDC patient-derived lung adenocarcinoma cell line growth inhibition
# experimental.parameters: second compound 1 µM; first compound 3 µM; active compounds read low
A collection of compounds and their measured viability, T/C

CCN(c1cc(-c2ccc(CN3CCOCC3)cc2)cc(C(=O)NCc2c(C)cc(C)[nH]c2=O)c1C)C1CCOCC1 + NC1CC1c1ccc(-c2cccc(O)c2)cc1; 71.8%
Nc1ccccc1NC(=O)c1ccc(CNC(=O)OCc2cccnc2)cc1 + NC1CCC(NC2CC2c2ccccc2)CC1; 8.55%

# input for lookup
Prompt line: Form field: reported viability, T/C of O=C(C=Cc1cccc(S(=O)(=O)Nc2ccccc2)c1)NO + NC1CC1c1ccc(-c2cccc(O)c2)cc1
Response line: 89%

====

# Tested on: 653999-131-R-J2-PDC complex spheroid viability
# test.name: Anticancer human tumor 653999-131-R-J2-PDC cell line growth inhibition;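 also: spheroids exposed to agents for seven days before readout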
# experimental.parameters: second compound 0.316 µM; first compound 0.00316 µM; active compounds read low
reported.metric: viability, T/C

CC(C)CC(NC(=O)C(Cc1ccccc1)NC(=O)c1cnccn1)B(O)O (stereo unspecified) + NC1CCC(NC2CC2c2ccccc2)CC1; 30.1%
CC1COCCN1c1cc(-c2ccnn2C)c2ccnc(-c3ccn[nH]3)c2n1 (stereo unspecified) + NC1CCC(NC2CC2c2ccccc2)CC1; 79.6%
CC(C)CC(NC(=O)C(Cc1ccccc1)NC(=O)c1cnccn1)B(O)O (stereo unspecified) + NC1CC1c1ccc(-c2cccc(O)c2)cc1; 11.4%
CC(C)CC(NC(=O)CNC(=O)c1cc(Cl)ccc1Cl)B1OC(=O)CC(CC(=O)O)(C(=O)O)O1 (stereo unspecified) + NC1CC1c1ccc(-c2cccc(O)c2)cc1; 117%
COc1cc(Nc2ncc3c(n2)-c2ccc(Cl)cc2C(c2c(F)cccc2OC)=NC3)ccc1C(=O)O + NC1CCC(NC2CC2c2ccccc2)CC1; 85.4%
Nc1ncn(C2CC(O)C(CO)O2)c(=O)n1 (stereo unspecified) + NC1CCC(NC2CC2c2ccccc2)CC1; 93.3%
Cn1ncnc1C1c2n[nH]c(=O)c3cc(F)cc(c23)NC1c1ccc(F)cc1 (stereo unspecified) + NC1CC1c1ccc(-c2cccc(O)c2)cc1; 101%
COc1cc(Nc2ncc3c(n2)-c2ccc(Cl)cc2C(c2c(F)cccc2OC)=NC3)ccc1C(=O)O + NC1CC1c1ccc(-c2cccc(O)c2)cc1; 63.6%

Prompt line: I'd like to know its viability, T/C. The molecule in question is CC[C@@]1(O)C(=O)OCc2c1cc1n(c2=O)Cc2cc3c(CN(C)C)c(O)ccc3nc2-1 + NC1CC1c1ccc(-c2cccc(O)c2)cc1
Response line: 83.8%

Prompt line: State the recorded viability, T/C for this entry: Cn1ncnc1C1c2n[nH]c(=O)c3cc(F)cc(c23)NC1c1ccc(F)cc1 (stereo unspecified) + NC1CCC(NC2CC2c2ccccc2)CC1
Response line: 82.1%

Prompt line: Given CC(C)CC(NC(=O)CNC(=O)c1cc(Cl)ccc1Cl)B1OC(=O)CC(CC(=O)O)(C(=O)O)O1 (stereo unspecified) + NC1CCC(NC2CC2c2ccccc2)CC1 , state its recorded viability, T/C.
Response line: 99%

Prompt line: What viability, T/C value was documented for this molecule, Nc1ncn(C2CC(O)C(CO)O2)c(=O)n1 (stereo unspecified) + NC1CC1c1ccc(-c2cccc(O)c2)cc1 ?
Response line: 87.8%

Prompt line: Recorded viability, T/C for CC[C@@]1(O)C(=O)OCc2c1cc1n(c2=O)Cc2cc3c(CN(C)C)c(O)ccc3nc2-1 + NC1CCC(NC2CC2c2ccccc2)CC1 , please?
Response line: 57.9%

Prompt line: GET /values?readout=viability, T/C&item= O=C(C=Cn1cnc(-c2cc(C(F)(F)F)cc(C(F)(F)F)c2)n1)NNc1cnccn1 + NC1CCC(NC2CC2c2ccccc2)CC1
Response line: 57.2%

Prompt line: Name the recorded viability, T/C for CC1COCCN1c1cc(-c2ccnn2C)c2ccnc(-c3ccn[nH]3)c2n1 (stereo unspecified) + NC1CC1c1ccc(-c2cccc(O)c2)cc1 .
Response line: 47.7%

Prompt line: Requested field: viability, T/C. Item: O=C(C=Cn1cnc(-c2cc(C(F)(F)F)cc(C(F)(F)F)c2)n1)NNc1cnccn1 + NC1CC1c1ccc(-c2cccc(O)c2)cc1
Response line: 54%

====

# Tested on: 653999-131-R-J2-PDC complex spheroid viability
# test.name: Anticancer human tumor 653999-131-R-J2-PDC cell line growth inhibition;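 also: spheroids exposed to agents for seven days before readout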
# experimental.parameters: second compound 1 µM; first compound 0.000316 µM; active compounds read low
# viability, T/C per record follows

Please review the following examples before continuing.
CC[C@@]1(O)C(=O)OCc2c1cc1n(c2=O)Cc2cc3c(CN(C)C)c(O)ccc3nc2-1 + NC1CC1c1ccc(-c2cccc(O)c2)cc1; 82.6%
CC(C)CC(NC(=O)C(Cc1ccccc1)NC(=O)c1cnccn1)B(O)O (stereo not drawn) + NC1CCC(NC2CC2c2ccccc2)CC1; 115%
CC(C)CC(NC(=O)CNC(=O)c1cc(Cl)ccc1Cl)B1OC(=O)CC(CC(=O)O)(C(=O)O)O1 (stereo not drawn) + NC1CCC(NC2CC2c2ccccc2)CC1; 87.8%
CC(C)CC(NC(=O)C(Cc1ccccc1)NC(=O)c1cnccn1)B(O)O (stereo not drawn) + NC1CC1c1ccc(-c2cccc(O)c2)cc1; 109%
CC(C)CC(NC(=O)CNC(=O)c1cc(Cl)ccc1Cl)B1OC(=O)CC(CC(=O)O)(C(=O)O)O1 (stereo not drawn) + NC1CC1c1ccc(-c2cccc(O)c2)cc1; 77.9%

Prompt line: # viability, T/C lookup, item Cn1ncnc1C1c2n[nH]c(=O)c3cc(F)cc(c23)NC1c1ccc(F)cc1 (stereo not drawn) + NC1CC1c1ccc(-c2cccc(O)c2)cc1
Response line: 90%

Prompt line: Please give the measured viability, T/C for this molecule: Cn1ncnc1C1c2n[nH]c(=O)c3cc(F)cc(c23)NC1c1ccc(F)cc1 (stereo not drawn) + NC1CCC(NC2CC2c2ccccc2)CC1
Response line: 95.6%

Prompt line: Name the reported viability, T/C value associated with the molecule CC[C@@]1(O)C(=O)OCc2c1cc1n(c2=O)Cc2cc3c(CN(C)C)c(O)ccc3nc2-1 + NC1CCC(NC2CC2c2ccccc2)CC1
Response line: 94.7%

====

# Tested on: 653999-131-R-J2-PDC complex spheroid viability
# test.name: Anticancer human tumor 653999-131-R-J2-PDC cell line growth inhibition; active = viability on the fitted dose curve at most 10% of control; inactive = the rest;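 also: spheroids exposed to agents for seven days before readout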
# experimental.parameters: second compound 1 µM; first compound 0.3 µM
Answer with one of the outcomes given here: active, inactive

COc1cc(C2c3cc4c(cc3C(OC3OC5COC(C)OC5C(O)C3O)C3COC(=O)C23)OCO4)cc(OC)c1O (centres undefined) + NC1CC1c1ccc(-c2cccc(O)c2)cc1; inactive
NS(=O)(=O)OCC1CC(n2ccc3c(NC4CCc5ccccc54)ncnc32)CC1O (centres undefined) + NC1CCC(NC2CC2c2ccccc2)CC1; inactive
COc1cc(C2c3cc4c(cc3C(OC3OC5COC(C)OC5C(O)C3O)C3COC(=O)C23)OCO4)cc(OC)c1O (centres undefined) + NC1CCC(NC2CC2c2ccccc2)CC1; inactive

Prompt line: Please state the recorded outcome for this molecule: CCc1c2c(nc3ccc(O)cc13)-c1cc3c(c(=O)n1C2)COC(=O)[C@]3(O)CC + NC1CC1c1ccc(-c2cccc(O)c2)cc1
Response line: active

Prompt line: So what was the verdict on Nc1ccn(C2OC(CO)C(O)C2(F)F)c(=O)n1 (centres undefined) + NC1CCC(NC2CC2c2ccccc2)CC1 in this test?
Response line: inactive

Prompt line: Query: recorded result category for Nc1ncn(C2CC(O)C(CO)S2)c(=O)n1 (centres undefined) + NC1CC1c1ccc(-c2cccc(O)c2)cc1 in this test
Response line: inactive

Prompt line: # fetch the recorded call for Nc1ccccc1NC(=O)c1ccc(CNC(=O)OCc2cccnc2)cc1 + NC1CCC(NC2CC2c2ccccc2)CC1 here
Response line: inactive

Prompt line: Each molecule tested received a call. Report the one for Nc1ccccc1NC(=O)c1ccc(CNC(=O)OCc2cccnc2)cc1 + NC1CC1c1ccc(-c2cccc(O)c2)cc1 .
Response line: inactive

Prompt line: What did this assay record as the result for NS(=O)(=O)OCC1CC(n2ccc3c(NC4CCc5ccccc54)ncnc32)CC1O (centres undefined) + NC1CC1c1ccc(-c2cccc(O)c2)cc1 ?
Response line: inactive

====

# Test system: 653999-131-R-J2-PDC complex spheroid viability
# test.name: Anticancer human tumor 653999-131-R-J2-PDC cell line growth inhibition;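 also: spheroids exposed to agents for seven days before readout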
# experimental.parameters: second compound 0.316 µM; first compound 3 µM; active compounds read low
reported.metric: viability, T/C

Below, each entry is followed by its recorded viability, T/C result.
COc1cc(C2c3cc4c(cc3C(OC3OC5COC(C)OC5C(O)C3O)C3COC(=O)C23)OCO4)cc(OC)c1O (configuration not stated) + NC1CCC(NC2CC2c2ccccc2)CC1; 29.7%
Nc1ccccc1NC(=O)c1ccc(CNC(=O)OCc2cccnc2)cc1 + NC1CCC(NC2CC2c2ccccc2)CC1; 8.88%

Prompt line: State the recorded viability, T/C for this entry: NS(=O)(=O)OCC1CC(n2ccc3c(NC4CCc5ccccc54)ncnc32)CC1O (configuration not stated) + NC1CCC(NC2CC2c2ccccc2)CC1
Response line: 50.7%

Prompt line: Query (compound): O=C(C=Cc1cccc(S(=O)(=O)Nc2ccccc2)c1)NO + NC1CC1c1ccc(-c2cccc(O)c2)cc1 ; field requested: viability, T/C
Response line: 93.6%

Prompt line: Consider the compound NS(=O)(=O)OCC1CC(n2ccc3c(NC4CCc5ccccc54)ncnc32)CC1O (configuration not stated) + NC1CC1c1ccc(-c2cccc(O)c2)cc1 and give its measured viability, T/C.
Response line: 61.6%

Prompt line: Entry CCN(c1cc(-c2ccc(CN3CCOCC3)cc2)cc(C(=O)NCc2c(C)cc(C)[nH]c2=O)c1C)C1CCOCC1 + NC1CC1c1ccc(-c2cccc(O)c2)cc1 : reported viability, T/C = ?
Response line: 69.7%

Prompt line: For the compound CCN(c1cc(-c2ccc(CN3CCOCC3)cc2)cc(C(=O)NCc2c(C)cc(C)[nH]c2=O)c1C)C1CCOCC1 + NC1CCC(NC2CC2c2ccccc2)CC1 , what viability, T/C is on record?
Response line: 72.2%

meta.source: PubChem BioAssay AID1918939
